System: IgM production by human lymphocytes
assayMethodText: Inhibition of IgM production by human lymphocytes in vitro (SAC activation, ELISA)
Type: cell-based
testContext: 1 × 10^-6 molar; 8 days; vehicle control 2.49 ± 0.17
valueType: IgM μg per culture (x ± S.E.M.)

C=C1/C(=C\C=C2/CCC[C@]3(C)[C@@H]([C@H](C)/C=C/[C@H](C)[C@](C)(O)CO)CC[C@@H]23)C[C@@H](O)C[C@@H]1O [1α,25S,26-(OH)3 --D2, 1α,25S,26-Trihydroxyergocalciferol] :: 0.01 ± 0.006 μg per culture
C=C1/C(=C/C=C2\CCC[C@]3(C)[C@@H]([C@H](C)CCCC(C)(C)O)CC[C@@H]23)C[C@@H](O)C[C@@H]1O [5,6-trans-1α,25-(OH)2 --D3] :: undetectable
C=C1/C(=C\C=C2/CCC[C@]3(C)[C@@H]([C@H](C)CCC(F)(F)C(C)(C)O)CC[C@@H]23)C[C@@H](O)C[C@@H]1O :: undetectable
C=C1/C(=C\C=C2/CCC[C@]3(C)[C@@H]([C@H](C)C=CC[C@](C)(O)CO)CC[C@@H]23)C[C@@H](O)C[C@@H]1O [1α,25S,26-(OH)3 --Δ^22 -D3] :: undetectable
C=C1/C(=C\C=C2/CCC[C@]3(C)[C@@H]([C@H](C)CC[C@@H](F)C(C)(C)O)CC[C@@H]23)C[C@@H](O)C[C@@H]1O [24R-F--1α,25-(OH)2 --D3] :: undetectable
C=C1/C(=C\C=C2/CCC[C@]3(C)[C@@H]([C@H](C)C[C@H](O)CC(C)(C)O)CC[C@@H]23)C[C@@H](O)C[C@@H]1O [1α,23S,25-(OH)3 --D3, 1α,23S,25-Trihydroxycholecalciferol] :: undetectable

Ask | I am curious: what IgM μg per culture (x ± S.E.M.) value has been reported for C=C1/C(=C\C=C2/CCC[C@]3(C)[C@@H]([C@H](C)CCCC(C)(C)O)CC[C@@H]23)C[C@@H](O)C[C@@H]1F [1α-F--25-OH--D3, 1α-Fluoro-25-hydroxycholecalciferol] ?
Reply | undetectable
